# Subject of test: SHP2-C SH2
# Method summary: SH2 binding enrichment of the phosphorylated peptide, bacterial display (enrichment ratio); higher = better substrate or ligand; peptides without Tyr show the background;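 note: peptide library displayed on the E. coli surface as eCPX fusions, selected cells deep-sequenced, score is each peptide's frequency after selection divided by its frequency in the input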
Property: SH2 binding enrichment

// known answers, use as guide
Briefly, SH2 binding enrichment measured for KLKEKYQKDIA [HMGB1_Y155_E156Q] : 1.91

Briefly, SH2 binding enrichment measured for RGNMYYENSYA [EGFR_Y113] : 0.978

Briefly, SH2 binding enrichment measured for CVRTIYTIDGS [DCLK2_Y124_G119C] : 0.432

Briefly, SH2 binding enrichment measured for LQTFRYHGLSM [PDHA1_Y289_H292L_YF] : 0.448

A = RHLQEYQDPLN [GFAP_Y349_L352P]
B = AGTILSHAHLD [ASS1_Y291_Y291S]
IN: Decide: A or B , by lowest recorded SH2 binding enrichment. Indicate which entry you chose by stating its label.
OUT: B
(B: 0.55, A: 0.842)

A = EFFENYIEELK [PARP4_Y218_F215Y_YF]
B = KRRGPYEMSPS [PLPP7_Y172_T174M]
IN: Decide: A or B , by lowest recorded SH2 binding enrichment. Indicate which entry you chose by stating its label.
OUT: B
(B: 0.344, A: 0.663)

A = SVGGCYEQLFV [MC4R_Y41_D37V]
B = RGRKVYLEDGF [PRIM2_Y201]
C = FTAVGYHKHFT [NOMO1_Y1137_I1141F]
D = SEEVTYATLTF [CLEC12B_Y7]
IN: Hey, quick one: sort these by SH2 binding enrichment, low to high? Ranked list of labels, please, in the requested order.
OUT: B, A, C, D
